# measurement-protocol: BSK_SAg_SRB: Viability Assessment in the BioMAP Diversity Plus: SAg Assay (AID 2283096);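 also: cells read one day after compound addition; hits may be either gain or loss of signal compared with DMSO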
# condition-parameters: primary human HUVEC with PBMC
Activity calls are given as the source filed them. The calls were made as follows: active = hit-call score of the fitted dose curve at least 0.9, where 1 is the maximum; inactive = score below 0.9.
Outcomes you can answer with include only these: active, inactive

For this compound, state the assay outcome: COC(=O)N(OC)c1ccccc1COc1ccn(-c2ccc(Cl)cc2)n1
active

For this compound, state the assay outcome: CN(C)C(=S)SSC(=S)N(C)C
active

For this compound, state the assay outcome: C=CC1(C)OC(=O)N(c2cc(Cl)cc(Cl)c2)C1=O (stereo unspecified)
inactive

For this compound, state the assay outcome: C#CCOS(=O)OC1CCCCC1Oc1ccc(C(C)(C)C)cc1 (stereo unspecified)
active

For this compound, state the assay outcome: CCON=C(CC)C1=C(O)CC(c2c(C)cc(C)cc2C)CC1=O (stereo unspecified)
inactive

For this compound, state the assay outcome: CCNc1nc(Cl)nc(NCC)n1
inactive

====

# measurement-protocol: TOX21_TRB_BLA_Antagonist_Followup_viability: Viability Assessment in the Tox21 Thyroid Hormone Receptor beta Antagonism Beta-lactamase (BLA) Follow-Up Assay (AID 2283961)
Inconclusive results are not listed. Active and inactive are the calls of the source. The calls were made as follows: active = hit-call score of the fitted dose curve at least 0.9, where 1 is the maximum; inconclusive = response in the unintended direction; inactive = score below 0.9.
Outcomes you can answer with include only these: active, inactive

For this compound, state the assay outcome: CCc1nn(C)c(C(=O)NCc2ccc(C(C)(C)C)cc2)c1Cl
active

For this compound, state the assay outcome: CO/C=C(/C(=O)OC)c1ccccc1Oc1cc(Oc2ccccc2C#N)ncn1
active

For this compound, state the assay outcome: CN(C)C(=S)SSC(=S)N(C)C
inactive

For this compound, state the assay outcome: CCCCNC(=O)n1c(NC(=O)OC)nc2ccccc21
inactive

====

# Read-out: Interleukin 6 Receptor (IL6R), IL6R (gene 3570)
# measurement-protocol: LTEA_HepaRG_IL6R: Life Technologies and Expression Analysis (LTEA) Assay for Interleukin 6 Receptor (IL6R) using HepaRG (AID 2283510)
# condition-parameters: mRNA level, 48 h; actives raise or lower the signal
The source made the active and inactive calls. Rule for the calls: active = hit-call score of the fitted dose curve at least 0.9, where 1 is the maximum; inactive = score below 0.9.
Outcomes you can answer with include only these: class 1 = active, class 0 = inactive

For this compound, state the assay outcome: N#Cc1cc(Br)c(O)c(Br)c1
class 1

For this compound, state the assay outcome: CON(C)C(=O)Nc1ccc(Cl)c(Cl)c1
class 0

For this compound, state the assay outcome: CCOc1cc(Oc2ccc(C(F)(F)F)cc2Cl)ccc1[N+](=O)[O-]
class 0

For this compound, state the assay outcome: CC1COC(Cn2cncn2)(c2ccc(Oc3ccc(Cl)cc3)cc2Cl)O1 (configuration not stated)
class 0

For this compound, state the assay outcome: CCOC(=O)C(Cl)Cc1cc(-n2nc(C)n(C(F)F)c2=O)c(F)cc1Cl (configuration not stated)
class 0

For this compound, state the assay outcome: CC(C)C1(C)N=C(c2nc3ccccc3cc2C(=O)O)NC1=O (configuration not stated)
class 0

For this compound, state the assay outcome: COc1ccc(C(c2ccc(OC)cc2)C(Cl)(Cl)Cl)cc1
class 0

For this compound, state the assay outcome: COC(=O)C=C(C)OP(=O)(OC)OC
class 0

For this compound, state the assay outcome: N#CC(CCc1ccc(Cl)cc1)(Cn1cncn1)c1ccccc1 (configuration not stated)
class 0

For this compound, state the assay outcome: COC(=O)N(OC)c1ccccc1COc1ccn(-c2ccc(Cl)cc2)n1
class 0

For this compound, state the assay outcome: C=CCC1=C(C)[C@@H](OC(=O)[C@@H]2[C@@H](C=C(C)C)C2(C)C)CC1=O
class 0

For this compound, state the assay outcome: CCCCNC(=O)n1c(NC(=O)OC)nc2ccccc21
class 0
